subjectOfTest: FAD-MtbFDTS complex (Mycobacterium tuberculosis)
measurementProtocol: biochemical
Type: binding
experimentalConditions: read-out: apparent Kd; binding to the FAD-MtbFDTS complex
metricName: Kd (nM)

>  <compound>
Nc1nc(=O)c2c([nH]1)NCC(CNc1ccc(C(=O)N[C@@H](CCC(=O)O)C(=O)O)cc1)N2C=O (mixture of isomers)

>  <metricName>
Kd

>  <endpointUnit>
nM

>  <obsValue>
1300

$$$$

====

subjectOfTest: MtbFDTS (Mycobacterium tuberculosis)
measurementProtocol: MtbFDTS oxidase reaction followed by NADPH consumption
Format: biochemical
experimentalConditions: aerobic, no CH2H4folate; ligand up to 250 μM
metricName: effect on the oxidase reaction (NADPH oxidation rate), in words

>  <compound>
Nc1nc(=O)c2c([nH]1)NCC(CNc1ccc(C(=O)N[C@@H](CCC(=O)O)C(=O)O)cc1)N2C=O (mixture of isomers)

>  <obsValue>
display inhibition

$$$$
>  <compound>
CN(Cc1cnc2nc(N)nc(N)c2n1)c1ccc(C(=O)N[C@@H](CCC(=O)O)C(=O)O)cc1 [methotrexate]

>  <obsValue>
display inhibition

$$$$

====

subjectOfTest: FAD-MtbFDTS complex (Mycobacterium tuberculosis, UniProt P9WG57)
Sequence (P9WG57 whole entry, one chain of several): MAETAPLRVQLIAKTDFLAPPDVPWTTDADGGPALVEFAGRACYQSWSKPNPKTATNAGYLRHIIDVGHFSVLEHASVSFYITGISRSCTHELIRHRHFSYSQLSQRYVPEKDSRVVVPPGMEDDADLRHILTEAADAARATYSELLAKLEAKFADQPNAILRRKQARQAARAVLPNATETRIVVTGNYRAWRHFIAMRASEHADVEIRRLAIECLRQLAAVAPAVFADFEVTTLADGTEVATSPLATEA
measurementProtocol: biochemical
Format: binding
pKd: −log10 of the molar value.

>  <compound>
O=c1ccn([C@H]2C[C@H](O)[C@@H](COP(=O)(O)O)O2)c(=O)[nH]1 [dUMP, 2′-deoxyuridine-5′-monophosphate]

>  <subjectOfTest>
FAD-MtbFDTS complex (Mycobacterium tuberculosis, UniProt P9WG57)

>  <pKd>
5.96

$$$$
